Target: T1, Soluble CTLA-4-Ig (human, UniProt P16410 36-161, FITC-conjugated in the two-colour FACS assays; unlabelled and detected with FITC goat anti-human IgG in the concentration-dependent assay)
T1 construct: extracellular domain; Bought from R&D Systems; also called sCTLA-4-Ig; CTLA-4-Ig Fc; not shown: Fc portion of human IgG1
T1 sequence (P16410 36-161): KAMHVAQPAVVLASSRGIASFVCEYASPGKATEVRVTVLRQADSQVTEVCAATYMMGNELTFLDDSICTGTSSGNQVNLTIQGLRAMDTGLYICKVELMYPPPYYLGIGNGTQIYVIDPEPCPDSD
Experiment: two-colour FACS profile on transfected cells; score of preference for CTLA-4-Ig over CD28-Ig vs WT hB7-1
readout_name: Binding Score
// no unit, no text: just the number

Round 2 CTLA4BP 2x1-h12 (ligand) VIHVTKEVKEVATLSCGLNVSVEELAQTRIHWQKEKKMVLTMMSGDMNIWPEYKNRTIFDITNNLSIVILALRPSDEGTYECVVLKYEKDAFKREHLAEVMLSVKADFPTPSITDFEIPPSNIRRIICSTSGGFPEPHLSWLENGEELNAINTTVSQDPGTELYTVSSKLDFNMTTNHSFMCLIKYGHLRVNQTFNWNTPKQEHFPDNLLPSWAITLISANGIFVICCLTYCFAPRCRERKSNERLRRESVCPV: 1
Round 2 CTLA4BP 2x2-f12 (ligand) VIHVTKEVKEVATLSCGHNVSVEELAQTRIHWQKEKKMVLTMMSGDMNIWPEYKNRTIFDITNNLSIVILALRPSDEGTYGCVVLEYEKDAFKREHLAEVMLSVKADFPTPSISDFEIPPSNIRRIICSTSGGFPEPHLSWLENGEELNAINTTVSQDPETELYAVSSKLDFNMTTNHSFMCLIKYGHLRANQTFNWNTPKQEHFPDNLLPSWAITLISVNGIFVICCLTYCFAPRCRERRRNERLRRESVRPV: 1

*Q* Would you kindly share the measured Binding Score for Round 2 CTLA4 A-C9-9 (ligand) SGITPKSVTKRVKETVMLSCDYSTSTEELTSLRIYWQKDSKMVLAILPGKVQVWPEYKNRTFPDIINNLSLMILALRLSDRGTYTCVVQKNENGSFRREHLTSVTLSIRADFPVPSITDIGHPAPNVKRIRCSASGGFPEPRLAWMEDGEELNAVNTTVDQDLDTELYSVGSELDFNVTNNHSIVCLIKYGELSVSQIFPWSKPKQEPPIDQLPFWVIIPVSGALVLTAVVLYCLARRHVARWKRTRRNEETVGTERLSPIYLGSAQSSG ?
*A* 0
